For each record, write down the corresponding tissue uptake at 1 h.
Test: Tissue distribution in Swiss nu/nu SSCUP mice bearing Dau
Assay type: in vivo, human
Details: mouse, muscle, iv, 3 umol/animal, 1 h; read-out: muscle % ID/g
Numbers only, in %ID/g.

compound="CCN(CC)CCNC(=O)c1ccc(I)cc1 [Derivative A, N-(2-diethylaminoethyl) 4-iodo benzamide]" assay_metric="tissue uptake at 1 h" unit_name=%ID/g readout_value=1.28

# context switch: different compound, same tissue uptake at 1 h
Any idea what its tissue uptake at 1 h is? The compound is CCNCCNC(=O)c1ccc(I)cc1 [Derivative B, N-(2-ethylaminoethyl) 4-iodo benzamide]
1.04
